src = ChEMBL document CHEMBL1125404

- target_system: Potassium-transporting ATPase (Oryctolagus cuniculus)
- assay_name: In vitro evaluation for the inhibition of H+/K+ ATPase at pH < 3 in the gastric glands of isolated rabbit stomach.
measured_property: IC50 (nM)

{"compound": "COc1cc(C[S+]([O-])c2nc3cc(OC(F)(F)C(F)F)ccc3[nH]2)ncc1C (centres undefined)", "IC50 [nM]": 1260}
{"compound": "COc1cnc(C[S+]([O-])c2nc3cc(OC(F)F)ccc3[nH]2)c(C)c1OC (centres undefined)", "IC50 [nM]": 2510}
{"compound": "COc1ccnc(C[S+]([O-])c2nc3cc(OCC(F)(F)F)ccc3[nH]2)c1C (centres undefined)", "IC50 [nM]": 794}

P = COc1ccnc(C[S+]([O-])c2nc3cc(OC(F)F)ccc3[nH]2)c1 (centres undefined)
Q = COc1ccnc(C[S+]([O-])c2nc3cc4c(cc3[nH]2)OC(F)(F)O4)c1OC (centres undefined)
Query :: Which gives the smaller IC50 number: P or Q ? Lab note: record the label of whichever item you select.
Result :: P
(P: 1580 nM, Q: 2510 nM)
